Experiment: qHTS of pediatric cancer cell lines to identify multiple opportunities for drug repurposing: Primary screen for A673 cells (AID 1347092); also: nearly all actives have a fitted effect of over 45% in size
Details: A673 Ewing sarcoma viability, CellTiter-Glo ATP luminescence, 48 h; series mostly up to 46 µM
Procedure: Drug repurposing or repositioning has been offered as a strategy for drug development in oncology programs. […] We employed a titration-based paradigm (quantitative high-throughput screening or qHTS), where all compounds were tested at multiple concentrations for their effect on cell viability. […] Shen, M et al. Quantitative high-throughput phenotypic screening of pediatric cancer cell lines identifies multiple opportunities for drug repurposing. […]
Results filed as inconclusive are left out. Activity calls are given as the source filed them. Calls follow the shape of the dose curve; as a rule, active = well fitted cell-killing curve with a large enough effect; inconclusive = small, poorly fitted or top-dose-only effect; inactive = no such curve, though single readings can be large or run the other way.
Classes used: 1 (active), -1 (inactive)

[[record]]
molecule = "COc1cc2nc(N3CCCN(C)CC3)nc(NC3CCN(Cc4ccccc4)CC3)c2cc1OC"
assigned_class = 1

[[record]]
molecule = "CC1(C)[C@H](C(=O)O)N2C(=O)C[C@H]2S1(=O)=O"
assigned_class = -1

[[record]]
molecule = "CCCc1cc(C(N)=S)ccn1"
assigned_class = -1

[[record]]
molecule = "CCC(=O)O[C@]1(C(=O)CCl)[C@@H](C)C[C@H]2[C@@H]3CCC4=CC(=O)C=C[C@]4(C)[C@@]3(F)[C@@H](O)C[C@@]21C"
assigned_class = -1

[[record]]
molecule = "O=C(O)c1cccnc1"
assigned_class = -1

[[record]]
molecule = "Nc1nc(F)nc2c1ncn2[C@@H]1O[C@H](CO)[C@@H](O)[C@@H]1O"
assigned_class = 1

[[record]]
molecule = "CCn1cc(C(=O)O)c(=O)c2cc(F)c(N3CCNCC3)nc21"
assigned_class = -1

[[record]]
molecule = "CCOc1cc(N)c(Cl)cc1C(=O)NCC1CN(Cc2ccc(F)cc2)CCO1 (stereo unspecified)"
assigned_class = -1

[[record]]
molecule = "CCn1cc(C(=O)O)c(=O)c2cc(F)c(N3CCNCC3)cc21"
assigned_class = -1

[[record]]
molecule = "CN(CCOc1ccc(CC2SC(=O)NC2=O)cc1)c1ccccn1 (stereo unspecified)"
assigned_class = -1

[[record]]
molecule = "Cc1cc(NS(=O)(=O)c2ccc(N)cc2)no1"
assigned_class = -1


###

Assay: qHTS profiling for inhibitors of Plasmodium falciparum proliferation (AID 504749);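 also: 0% = DMSO vehicle and full inhibition = artemisinin control; nearly all actives have a fitted effect of over 60% in size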
Details: P. falciparum in erythrocytes, SYBR Green DNA, 72 h; at 28.7 µM (top of the series); parasite line B
Records with an inconclusive call do not appear.
Entry flag: Met if activity, negative = inhibition reaches -10%; Not met if it does not.

[[record]]
molecule = "CC1=NN(c2ccccc2)C(=O)C1"
assigned_class = "Not met"

[[record]]
molecule = "CCn1cc(C(=O)O)c(=O)c2cc(F)c(N3CCN(C)CC3)cc21"
assigned_class = "Not met"

[[record]]
molecule = "CN1CCN(c2c(F)cc3c(=O)c(C(=O)O)cn4c3c2OCN4C)CC1"
assigned_class = "Met"

[[record]]
molecule = "CN1CCCC(n2nc(Cc3ccc(Cl)cc3)c3ccccc3c2=O)CC1 (stereo not given)"
assigned_class = "Not met"

[[record]]
molecule = "CCOCC(O)COc1ccc(NC(=O)CC[S+](C)C)cc1 (stereo not given)"
assigned_class = "Met"


###

Assay: Quantitative High-Throughput drug screen in 47 multiple myeloma cell lines against the NCATS MIPE library collection: VP6_DJ cell viability assay (AID 1919867); also: nearly all actives have a fitted effect of over 40% in size
Conditions: ATP luminescence, 48 h; series mostly up to 45.8 µM
Source text: PI: Beverly A. Mock Ph.D. Laboratory of Cancer Biology and Genetics, Center for Cancer Research, National Cancer Institute, National Institute of Health, Bethesda, Maryland […] 5; Detector; 425V; Luminescence; Viewlux PerkinElmer. […] 1. […] Briefly, the corresponding myeloma cell lines were screened in 1,536-well plates with 500 cells, 5-uL per well for inhibition of cell viability (assessed by measuring ATP levels with CellTiterGlo). […]
Results filed as inconclusive are left out. The source made the active and inactive calls. Calls come from the whole dose curve; as a rule, active = well fitted cell-killing curve with a large enough effect; inconclusive = small, poorly fitted or top-dose-only effect, or effect the other way; inactive = no such curve, though single readings can be large or run the other way.
Classes used: active, inactive

[[record]]
molecule = "NS(=O)(=O)c1cc2c(cc1Cl)NC(C(Cl)Cl)NS2(=O)=O (stereo not given)"
assigned_class = "inactive"

[[record]]
molecule = "CC1CC2C3CCC4=CC(=O)C=C[C@]4(C)[C@@]3(F)[C@@H](O)C[C@]2(C)[C@@]1(O)C(=O)CO (stereo not given in full)"
assigned_class = "active"

[[record]]
molecule = "Cc1ccnc2c1NC(=O)c1cccnc1N2C1CC1"
assigned_class = "active"

[[record]]
molecule = "CCOC(=O)[C@H](CCc1ccccc1)N[C@H]1CCc2ccccc2N(CC(=O)O)C1=O"
assigned_class = "active"

[[record]]
molecule = "CCCN[C@H]1CCc2nc(N)sc2C1"
assigned_class = "active"

[[record]]
molecule = "COc1cnc(NS(=O)(=O)c2ccc(N)cc2)nc1"
assigned_class = "active"

[[record]]
molecule = "CCCCCCNC(=O)n1cc(F)c(=O)[nH]c1=O"
assigned_class = "active"

[[record]]
molecule = "NC1(c2ccc(-c3nc4ccn5c(=O)[nH]nc5c4cc3-c3ccccc3)cc2)CCC1"
assigned_class = "active"

[[record]]
molecule = "CN(C)c1ccc(C(=C2C=CC(=[N+](C)C)C=C2)c2ccc(N(C)C)cc2)cc1"
assigned_class = "active"

[[record]]
molecule = "NNC(=O)c1ccncc1"
assigned_class = "inactive"

[[record]]
molecule = "Nc1nc(F)nc2c1ncn2[C@@H]1O[C@H](CO)[C@@H](O)[C@@H]1O"
assigned_class = "active"

[[record]]
molecule = "CN(C)CCc1c[nH]c2ccc(C[C@H]3COC(=O)N3)cc12"
assigned_class = "inactive"

[[record]]
molecule = "CC(C)(Sc1cc(C(C)(C)C)c(O)c(C(C)(C)C)c1)Sc1cc(C(C)(C)C)c(O)c(C(C)(C)C)c1"
assigned_class = "active"

[[record]]
molecule = "Nc1nc(=S)c2[nH]cnc2[nH]1"
assigned_class = "active"

[[record]]
molecule = "CC(=O)[C@H]1CC[C@H]2[C@@H]3CCC4=CC(=O)CC[C@]4(C)[C@H]3CC[C@]12C"
assigned_class = "active"

[[record]]
molecule = "NC(=O)c1cccc(N)c1"
assigned_class = "active"

[[record]]
molecule = "CCCCS(=N)(=O)CCC(N)C(=O)O (stereo not given)"
assigned_class = "active"

[[record]]
molecule = "N=C(N)c1ccc(OCCCCCOc2ccc(C(=N)N)cc2)cc1"
assigned_class = "active"

[[record]]
molecule = "Cc1ncc([N+](=O)[O-])n1CCO"
assigned_class = "inactive"

[[record]]
molecule = "Cc1cccc(Nc2ccncc2S(=O)(=O)NC(=O)NC(C)C)c1"
assigned_class = "active"

[[record]]
molecule = "Oc1c(Cl)cc(Cl)c2cccnc12"
assigned_class = "active"

[[record]]
molecule = "Cc1nnc(NS(=O)(=O)c2ccc(N)cc2)s1"
assigned_class = "active"

[[record]]
molecule = "CC(=O)CC(c1ccccc1)c1c(O)c2ccccc2oc1=O (stereo not given)"
assigned_class = "inactive"

[[record]]
molecule = "C[C@]12C=CC(=O)C=C1CC[C@@H]1[C@@H]2C(=O)C[C@@]2(C)[C@H]1CC[C@]2(O)C(=O)CO"
assigned_class = "inactive"

[[record]]
molecule = "CC1=C(C(=O)O)N2C(=O)[C@@H](NC(=O)C(N)c3ccccc3)[C@H]2SC1 (stereo not given in full)"
assigned_class = "inactive"

